Recorded DC50 by entry
Target: IRAK4 (Homo sapiens, UniProt Q9NWZ3)
Construct: Degradation of IRAK4 in OCI-LY10 was quantitatively measured using Meso Scale Discovery technology; endogenous in cells; host or cells: OCI-LY10
Assay: IRAK4 MSD Degradation in OCI-LY10
Assay type: cell-based
Details: OCI-LY10 cells, 24 hrs incubation, MSD; read-out: IRAK4 degradation in OCI-LY10 at 24 hrs: DC50

# query: DC50 | item Cn1c(=O)n(C2CCC(=O)NC2=O)c2cccc(C#CCOC3C[C@H]4CC[C@@H](C3)N4C[C@H]3CC[C@H](n4cc(NC(=O)c5cnn6ccc(N7C[C@H]8C[C@@H]7CO8)nc56)c(C(F)F)n4)CC3)c21 (some centres unmarked) | system: IRAK4 (Homo sapiens, UniProt Q9NWZ3)
> 200 nM

----------
Target: IRAK4 (Homo sapiens, UniProt Q9NWZ3)
Construct: Degradation of IRAK4 in OCI-LY10 was quantitatively measured using Meso Scale Discovery technology; endogenous in cells; host or cells: OCI-LY10
Sequence (Q9NWZ3 1-460): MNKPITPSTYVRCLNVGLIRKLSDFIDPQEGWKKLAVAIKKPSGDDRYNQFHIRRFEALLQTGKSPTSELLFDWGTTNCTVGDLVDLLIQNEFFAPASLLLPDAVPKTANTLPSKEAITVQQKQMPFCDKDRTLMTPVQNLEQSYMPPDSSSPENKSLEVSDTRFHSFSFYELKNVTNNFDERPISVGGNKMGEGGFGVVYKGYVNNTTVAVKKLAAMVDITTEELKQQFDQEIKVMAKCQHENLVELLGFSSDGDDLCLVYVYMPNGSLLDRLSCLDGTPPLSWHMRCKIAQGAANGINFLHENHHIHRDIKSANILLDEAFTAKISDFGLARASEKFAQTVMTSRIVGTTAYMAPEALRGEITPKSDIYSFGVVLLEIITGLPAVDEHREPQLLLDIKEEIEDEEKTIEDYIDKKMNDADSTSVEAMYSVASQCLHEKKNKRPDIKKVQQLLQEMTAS
Assay: IRAK4 MSD Degradation in OCI-LY10
Format: cell-based
Settings: OCI-LY10 cells, 24 hrs incubation, MSD; read-out: IRAK4 degradation in OCI-LY10 at 24 hrs: DC50
EXPERIMENTAL_ENDPOINT: DC50

Check out these entries, answers already filled in.
C[C@@H]1CN(CCCc2cccc3c2n(C)c(=O)n3C2CCC(=O)NC2=O)CCN1C[C@H]1CC[C@H](n2cc(NC(=O)c3cnn4ccc(N5C[C@H]6C[C@@H]5CO6)nc34)c(C(F)F)n2)CC1 (some centres unmarked)	> 200 nM
COc1nc(NC(=O)c2cccc(C(F)(F)F)n2)cc2cn([C@H]3CC[C@H](CN4CC[C@@H](c5cccc6c5n(C)c(=O)n6C5CCC(=O)NC5=O)[C@H](F)C4)CC3)nc12 (some centres unmarked)	> 200 nM
CN(C[C@H]1CC[C@H](n2cc(CC(=O)c3cnn4ccc(N5CCC(C)(C)CC5)nc34)c(C(F)F)n2)CC1)C1CCN(c2cccc3c2n(C)c(=O)n3C2CCC(=O)NC2=O)CC1 (some centres unmarked)	10 to 100 nM
Cn1c(=O)n(C2CCC(=O)NC2=O)c2cccc([C@H]3CCN(C[C@H]4CC[C@H](n5cc6cc(NC(=O)c7cccc(C(F)F)n7)ncc6n5)CC4)C[C@@H]3F)c21 (some centres unmarked)	> 200 nM
Cn1c(=O)n(C2CCC(=O)NC2=O)c2cccc(N3CCC(F)(CN4CC5(CCC(n6cc7cc(NC(=O)c8cccc(C(F)(F)F)n8)c(C#N)cc7n6)CC5)C4)CC3)c21 (centres unmarked)	> 200 nM

So what does the record say about DC50 for C[C@@H]1C[C@@H](OCC#Cc2cccc3c2n(C)c(=O)n3C2CCC(=O)NC2=O)CCN1C[C@H]1CC[C@H](n2cc(NC(=O)c3cnn4ccc(N5C[C@H]6C[C@@H]5CO6)nc34)c(C(F)F)n2)CC1 (some centres unmarked) ?
> 200 nM

Try this compound too: Cn1c(=O)n(C2CCC(=O)NC2=O)c2cccc(N3CC(CO[C@@H]4CCN(C[C@H]5CC[C@H](n6cc(NC(=O)c7cnn8ccc(N9C[C@H]%10CC9CO%10)nc78)c(C(F)F)n6)CC5)C[C@@H]4F)C3)c21 (some centres unmarked)
< 10 nM

Try this compound too: COC1(CN2CCN(C[C@H]3CC[C@H](n4cc(NC(=O)c5cnn6ccc(N7C[C@H]8CC7CO8)nc56)c(C(F)F)n4)CC3)CC2)CN(c2cccc3c2n(C)c(=O)n3C2CCC(=O)NC2=O)C1 (some centres unmarked)
< 10 nM

The values you see were collected from patent US12091411B2.
